In this section we review reported melting point values for a set of molecules.

Worked cases, melting point given:
CC1N=C(c2ccccc2)c2cc(Cl)ccc2NC1=S (stereo not given) :: 250 °C
COC(=O)C1CCC(=O)c2c(-c3ccc(Cl)cc3)noc2C1 (stereo not given) :: 108 to 109 °C
O=C(CNC(=O)c1ccncc1)NC1CCN(CCc2c[nH]c3ccccc23)CC1 :: 211 to 215 °C
Cc1noc(NS(=O)(=O)c2ccccc2-c2ncccn2)c1C :: 160 to 162 °C
Cc1c(-c2ccc(C#N)cc2)n[nH]c1C(=O)O :: 260 °C

Param item = O=C(O)c1cnc2c3ccccc3c(O)cn2c1=O ; retrieve measured melting point.
273 to 276 °C

Param item = COCc1c(C(O)c2ccccc2)ncc2c1c1cc(OCc3ccccc3)ccc1n2S(=O)(=O)c1ccc(C)cc1 (stereo not given) ; retrieve measured melting point.
146 to 147 °C
